Target: Full-length (FL)-PRMT5-MEP50 enzyme complex (Homo sapiens, UniProt O14744)
Construct: Full-length (FL)-PRMT5-MEP50 enzyme complex (recombinant proteins from baculovirus-transfected Sf21 cells: FL-PRMT5; MW=73837 kDa and FL-MEP50; MW=38614); made in house; host or cells: baculovirus-transfected Sf21 insect cells
Sequence (O14744 whole entry): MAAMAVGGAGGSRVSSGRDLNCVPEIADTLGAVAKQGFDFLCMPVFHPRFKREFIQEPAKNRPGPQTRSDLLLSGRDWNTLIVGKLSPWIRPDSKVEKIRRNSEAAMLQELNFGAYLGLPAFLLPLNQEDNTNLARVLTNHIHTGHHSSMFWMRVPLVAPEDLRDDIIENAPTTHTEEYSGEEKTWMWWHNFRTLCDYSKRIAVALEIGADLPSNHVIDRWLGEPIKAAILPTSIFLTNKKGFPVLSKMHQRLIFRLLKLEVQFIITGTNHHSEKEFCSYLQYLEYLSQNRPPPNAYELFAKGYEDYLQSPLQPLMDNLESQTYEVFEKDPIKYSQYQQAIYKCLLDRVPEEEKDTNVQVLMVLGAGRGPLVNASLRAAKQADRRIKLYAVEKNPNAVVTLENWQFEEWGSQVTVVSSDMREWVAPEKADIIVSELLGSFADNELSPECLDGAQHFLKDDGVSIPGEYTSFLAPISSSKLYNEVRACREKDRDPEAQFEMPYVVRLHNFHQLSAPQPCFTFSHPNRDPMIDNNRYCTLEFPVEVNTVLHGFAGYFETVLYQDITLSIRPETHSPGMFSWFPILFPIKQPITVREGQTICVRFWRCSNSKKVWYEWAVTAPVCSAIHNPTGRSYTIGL
Sequence (Q9BQA1 whole entry partner): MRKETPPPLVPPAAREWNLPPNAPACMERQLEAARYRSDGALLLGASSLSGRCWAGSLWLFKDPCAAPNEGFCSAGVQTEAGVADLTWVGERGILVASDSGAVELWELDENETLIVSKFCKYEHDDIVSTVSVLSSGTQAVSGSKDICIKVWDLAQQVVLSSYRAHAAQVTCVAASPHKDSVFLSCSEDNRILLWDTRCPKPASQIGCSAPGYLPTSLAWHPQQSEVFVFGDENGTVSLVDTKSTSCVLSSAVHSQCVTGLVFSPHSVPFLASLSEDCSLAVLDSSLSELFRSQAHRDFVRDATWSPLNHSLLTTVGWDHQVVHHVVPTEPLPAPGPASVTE
Assay: PRMT5-MEP50 Enzyme Methylation Assay
Assay type: biochemical
Settings: second EC50 of 7 parameters biphasic model; 1.0 nM PRMT5-MEP50, 75 nM biotinylated peptide, 15 μM SAM; read-out: Enzyme Methylation Assay (EC50 2)
MEASURED ATTRIBUTE: log10 of EC50 (log10 of the value in nM)
Quick note: numbers are log10 of EC50, with nM as the unit.

Some entries whose results are on file:
[[record]]
molecule = "C[C@@]1(CCc2ccc3cc(F)c(N)nc3c2)C[C@@H](n2ccc3c(N)ncnc32)[C@H](O)[C@@H]1O"
measured_attribute = "log10 of EC50"
quantitative_result = 2.82

[[record]]
molecule = "Nc1nc2cc(CC3OC[C@@]4(O)C3C[C@@H](n3ccc5c(N)ncnc53)[C@@H]4O)ccc2cc1Br (stereo partly drawn)"
measured_attribute = "log10 of EC50"
quantitative_result = 3.52

[[record]]
molecule = "C[C@@]1(O)[C@@H](CCc2ccc3cc(Br)c(N)nc3c2)O[C@@H](n2ccc3c(N)ncnc32)[C@@H]1O"
measured_attribute = "log10 of EC50"
quantitative_result = 2.26

[[record]]
molecule = "Cc1cn([C@@H]2O[C@@H]3[C@@H](Oc4ccc5cc(F)c(N)nc5c4)CC[C@]3(O)[C@H]2O)c2ncnc(N)c12 [Example 65, 2,2,2-trifluoroacetate]"
measured_attribute = "log10 of EC50"
quantitative_result = 2.30

[[record]]
molecule = "C[C@@]1(O)[C@@H](COc2ccc3cc(Br)c(N)nc3c2)C[C@@H](n2ccc3c(Cl)ncnc32)[C@@H]1O"
measured_attribute = "log10 of EC50"
quantitative_result = 1.75

[[record]]
molecule = "Nc1nc2cc(O[C@H]3CC[C@@]4(O)[C@@H]3C[C@@H](n3ccc5c(N)ncnc53)[C@@H]4O)ccc2cc1Br [Example 119, 2,2,2-trifluoroacetate]"
measured_attribute = "log10 of EC50"
quantitative_result = 2.06

[[record]]
molecule = "C[C@@]1(O)[C@@H](COc2ccc3cc(Br)c(N)nc3c2)O[C@@H](n2ccc3c(N)ncnc32)[C@@H]1O"
measured_attribute = "log10 of EC50"
quantitative_result = 1.34

[[record]]
molecule = "C[C@@]1(O)[C@@H](COc2ccc3ccc(N)nc3c2)C[C@@H](n2ccc3cncnc32)[C@@H]1O"
measured_attribute = "log10 of EC50"
quantitative_result = 1.34

[[record]]
molecule = "CCc1ncnc2c1ccn2[C@@H]1O[C@@H]2[C@@H](Oc3ccc4cc(Br)c(N)nc4c3)CC[C@]2(O)[C@H]1O [Example 82, 2,2,2-trifluoroacetate]"
measured_attribute = "log10 of EC50"
quantitative_result = 1.88

[[record]]
molecule = "COc1ncnc2c1ccn2[C@@H]1O[C@](C)(COc2ccc3cc(Br)c(N)nc3c2)[C@@H](O)[C@H]1O"
measured_attribute = "log10 of EC50"
quantitative_result = 4.32


log10 of EC50 in this record for C[C@@]1(O)[C@@H](CCc2ccc3cc(Br)c(N)nc3c2)C[C@@H](n2ccc3c(N)ncnc32)[C@@H]1O : 1.61

log10 of EC50 in this record for Cc1ncnc2c1ccn2[C@@H]1O[C@@H]2[C@@H](Oc3ccc4cc(C(F)F)c(N)nc4c3)CC[C@]2(O)[C@H]1O : 2.41
